Hey, just so you know, these numbers are from patent US12428408B2.

- tested-system: 5-HT1A receptor (Homo sapiens, UniProt P08908)
- Construct: purchased Perkin Elmer 6110501400UA
- Sequence (P08908 whole entry): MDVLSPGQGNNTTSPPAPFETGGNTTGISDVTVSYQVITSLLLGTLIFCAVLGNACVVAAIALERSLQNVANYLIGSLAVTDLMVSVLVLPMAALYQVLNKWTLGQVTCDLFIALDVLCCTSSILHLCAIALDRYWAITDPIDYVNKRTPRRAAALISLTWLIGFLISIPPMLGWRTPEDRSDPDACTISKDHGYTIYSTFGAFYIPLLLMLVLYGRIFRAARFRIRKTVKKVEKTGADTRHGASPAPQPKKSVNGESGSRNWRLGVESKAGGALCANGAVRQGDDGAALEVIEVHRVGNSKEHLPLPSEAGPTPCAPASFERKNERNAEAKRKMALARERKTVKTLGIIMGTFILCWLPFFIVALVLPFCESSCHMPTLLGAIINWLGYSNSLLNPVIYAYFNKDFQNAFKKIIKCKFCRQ
- test: 5-HT1A receptor radioligand competition assay (SPA)
- Type: binding
- test-context: competition with 0.5 nM 8-hydroxy-DPAT [3H]; test compound 3 nM to 1 mM; read-out: 5-HT1A, Ki
quantity: pKi
A value of pKi is the negative decimal logarithm of a concentration given in moles per litre.

Example entries begin here.
> print(dat)
                                   compound  readout.number
1  CC(C)(C)OC(=O)NC1CN(CCc2ccc3c(c2)OCO3)C1 [A(XV)]            5.51
2  CC(Cc1ccc2c(c1)OCO2)N1CC(NC(=O)OC(C)(C)C)C1 (centres unmarked) [A(IV)]            5.80
3       Brc1cc2c(cc1CCN1CCCC1)OCO2 [A(XXV)]            7.20
4  O=C(Cc1c(Br)ccc2c1OCO2)N1CCCC1 [A(XXVI)]            4.35
5         COc1cc2c(cc1CCNCCO)OCO2 [A(XXIV)]            6.00

State its pKi for this compound: CNC(C)Cc1ccc2c(c1)OCO2 (centres unmarked) [MDMA, reference compound]
4.96

// Input: c1cc(CCN2CCCC2)c2c(c1)OCO2 [A(XXIX)] . Output its pKi only.
7.88

// fetch pKi given entry COc1cc2c(cc1CC(=O)N1CCCC1)OCO2 [A(XXI)]
4.15
